Target: T1, human BACE1 ECD
T1 construct: analyte of the Octet assay (200 nM) and enzyme of the first short substrate assay; also called human BACE1 extracellular domain
T1 sequence (single chain, as listed by the source limits assumed): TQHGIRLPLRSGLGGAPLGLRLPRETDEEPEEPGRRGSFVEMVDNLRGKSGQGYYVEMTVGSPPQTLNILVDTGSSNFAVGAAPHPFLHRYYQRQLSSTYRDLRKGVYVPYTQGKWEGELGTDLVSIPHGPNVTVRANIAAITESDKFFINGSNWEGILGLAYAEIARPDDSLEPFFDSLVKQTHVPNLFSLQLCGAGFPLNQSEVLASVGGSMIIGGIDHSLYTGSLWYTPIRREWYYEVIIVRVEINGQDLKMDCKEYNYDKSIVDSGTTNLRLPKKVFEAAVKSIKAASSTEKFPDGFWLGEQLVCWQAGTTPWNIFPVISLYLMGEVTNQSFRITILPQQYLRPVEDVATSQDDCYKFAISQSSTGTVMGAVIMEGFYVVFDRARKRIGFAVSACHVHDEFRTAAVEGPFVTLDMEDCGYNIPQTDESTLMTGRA
Assay: Octet, pH 7.5, second run
Property: pKd
One number for each entry, as −log10 of the molar value.

5896 (antibody, V domains shown, anti-BACE1 IgG) VH: QLQLQESGPGLVKPSETLSLTCTVSGGSISSSSYYWGWIRQPPGKGLEWIGSIYRSGSTYYNPSLKSRVTISVDTSKNQFSLKLSSVTAADTAVYYCARVGHGISYFDLWGRGTLVTVSS VL: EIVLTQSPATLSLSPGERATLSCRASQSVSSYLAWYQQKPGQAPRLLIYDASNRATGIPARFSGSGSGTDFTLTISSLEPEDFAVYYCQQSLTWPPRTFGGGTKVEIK: 9.15

API: the following record is the query input.
**Query** Quick check: pKd of 5905 (antibody, V domains shown, anti-BACE1 IgG) VH: QLQLQESGPGLVKPSETLSLTCTVSGGSISWSSYYWSWIRQPPGKGLEWIGSIYRSGRTYYNPSLKSRVTISVDTSKNQFSLKLSSVTAADTAVYYCARVGHGISYFDLWGRGTLVTVSS VL: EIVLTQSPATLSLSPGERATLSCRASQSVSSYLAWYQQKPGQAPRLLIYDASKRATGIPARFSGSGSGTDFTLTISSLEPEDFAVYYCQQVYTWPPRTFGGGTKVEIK ?
**Result** 9.29
